Catalogue of Percent control readings, one per entry.
molecular target: UniProt:P54760; conditions: 10 μM
Sequence (P54760 16-987): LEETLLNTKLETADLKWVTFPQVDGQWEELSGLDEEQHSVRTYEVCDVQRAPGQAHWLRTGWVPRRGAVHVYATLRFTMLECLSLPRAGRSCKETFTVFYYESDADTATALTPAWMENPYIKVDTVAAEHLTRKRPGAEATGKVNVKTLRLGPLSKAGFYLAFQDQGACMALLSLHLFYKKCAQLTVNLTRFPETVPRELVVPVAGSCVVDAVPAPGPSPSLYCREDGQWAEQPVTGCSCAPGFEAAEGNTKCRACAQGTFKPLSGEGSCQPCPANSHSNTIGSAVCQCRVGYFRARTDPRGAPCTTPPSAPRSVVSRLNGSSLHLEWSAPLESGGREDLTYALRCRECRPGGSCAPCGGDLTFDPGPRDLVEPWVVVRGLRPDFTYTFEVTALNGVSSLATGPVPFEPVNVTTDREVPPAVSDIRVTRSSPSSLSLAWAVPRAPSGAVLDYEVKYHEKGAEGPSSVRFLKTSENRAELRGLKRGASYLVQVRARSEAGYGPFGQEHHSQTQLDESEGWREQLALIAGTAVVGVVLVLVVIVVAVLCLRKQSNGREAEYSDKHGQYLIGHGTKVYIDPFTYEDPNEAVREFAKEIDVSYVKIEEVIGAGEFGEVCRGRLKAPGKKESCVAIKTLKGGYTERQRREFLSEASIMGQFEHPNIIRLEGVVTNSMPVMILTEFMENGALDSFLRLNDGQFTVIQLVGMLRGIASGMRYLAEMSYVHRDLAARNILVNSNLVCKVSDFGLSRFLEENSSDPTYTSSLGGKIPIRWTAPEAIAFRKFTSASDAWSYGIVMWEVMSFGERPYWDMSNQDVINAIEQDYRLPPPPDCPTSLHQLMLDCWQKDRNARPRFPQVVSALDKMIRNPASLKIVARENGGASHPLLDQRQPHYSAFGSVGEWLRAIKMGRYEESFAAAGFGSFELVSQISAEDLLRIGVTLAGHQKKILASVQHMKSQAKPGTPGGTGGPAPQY
Value type: Percent control (%)

# Compound, Obs value
records = [
    ("Cc1ccc(NC(=O)c2ccc(CN3CCN(C)CC3)cc2)cc1Nc1nccc(-c2cccnc2)n1 [Imatinib, reference compound]", 100),
    ("COc1cc2c(Nc3ccc(Br)cc3F)[n+]([Pt-2]3([Cl])[NH2+]C4CCCCC4[NH2+]3)cnc2cc1OCC1CCN(C)CC1 (stereo not shown)", 35),
    ("Cc1ccc(NC(=O)c2ccc(CN3CCN(C)CC3)cc2)cc1Nc1nccc(-c2cccnc2)[n+]1[Pt-2]1([Cl])[NH2+]C2CCCCC2[NH2+]1 (stereo not shown)", 100),
    ("C#Cc1cccc(Nc2c3cc(OCCOC)c(OCCOC)cc3nc[n+]2[Pt@SP2-2]([NH3+])([NH3+])[Cl])c1 [2a, cisplatin-erlotinib]", 91),
]

* * *

target: P-gp (Homo sapiens, UniProt P08183); test: in vitro; details: dog, MDCK-MDR1, pH 7.4
Sequence (P08183 whole entry): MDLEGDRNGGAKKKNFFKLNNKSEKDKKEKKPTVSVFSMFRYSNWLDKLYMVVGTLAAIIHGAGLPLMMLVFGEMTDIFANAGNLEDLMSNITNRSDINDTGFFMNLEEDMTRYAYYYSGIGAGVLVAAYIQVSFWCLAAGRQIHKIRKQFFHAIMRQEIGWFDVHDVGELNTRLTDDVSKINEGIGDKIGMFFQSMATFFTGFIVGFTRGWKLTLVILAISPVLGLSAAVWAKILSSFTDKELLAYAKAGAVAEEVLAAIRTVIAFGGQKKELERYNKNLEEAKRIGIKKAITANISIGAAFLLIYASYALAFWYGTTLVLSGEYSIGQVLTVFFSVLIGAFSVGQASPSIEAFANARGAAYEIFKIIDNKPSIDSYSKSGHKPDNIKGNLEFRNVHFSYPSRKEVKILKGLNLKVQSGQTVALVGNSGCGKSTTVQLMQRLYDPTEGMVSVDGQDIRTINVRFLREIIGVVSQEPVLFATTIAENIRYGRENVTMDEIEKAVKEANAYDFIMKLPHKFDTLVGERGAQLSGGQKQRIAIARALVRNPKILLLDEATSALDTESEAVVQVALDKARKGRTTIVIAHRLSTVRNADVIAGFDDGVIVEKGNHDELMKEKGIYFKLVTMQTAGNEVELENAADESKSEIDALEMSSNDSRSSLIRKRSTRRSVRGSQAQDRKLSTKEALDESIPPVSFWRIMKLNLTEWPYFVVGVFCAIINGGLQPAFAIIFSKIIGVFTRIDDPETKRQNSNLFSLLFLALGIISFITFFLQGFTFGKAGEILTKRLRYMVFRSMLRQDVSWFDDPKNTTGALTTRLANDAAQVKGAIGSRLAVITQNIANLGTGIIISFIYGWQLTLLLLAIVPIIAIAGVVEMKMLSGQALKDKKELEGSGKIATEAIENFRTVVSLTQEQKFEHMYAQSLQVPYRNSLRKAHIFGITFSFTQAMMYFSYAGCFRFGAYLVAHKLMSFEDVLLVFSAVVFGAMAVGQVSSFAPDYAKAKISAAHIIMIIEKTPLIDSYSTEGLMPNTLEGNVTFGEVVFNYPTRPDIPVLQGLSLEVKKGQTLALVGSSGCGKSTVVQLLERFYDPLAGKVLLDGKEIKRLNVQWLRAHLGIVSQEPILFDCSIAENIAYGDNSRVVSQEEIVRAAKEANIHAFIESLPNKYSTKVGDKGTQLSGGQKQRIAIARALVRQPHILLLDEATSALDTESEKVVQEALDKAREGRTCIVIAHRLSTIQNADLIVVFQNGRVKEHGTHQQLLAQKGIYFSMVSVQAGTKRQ
Value type: Papp A→B at 120 min, 10 μM (×10⁻⁶ cm/s)

# Input smiles, Display unit, Obs value
data = [
    ("C#Cc1cccc(Nc2ncnc3cc(OCCOC)c(OCCOC)cc23)c1", "×10⁻⁶ cm/s", 18.4),
]

* * *

target: EPHA7 (Homo sapiens); construct: purchased DiscoveRx KINOMEscan; type: binding; conditions: EPHA7; 10 μM
Sequence (Q15375 28-998): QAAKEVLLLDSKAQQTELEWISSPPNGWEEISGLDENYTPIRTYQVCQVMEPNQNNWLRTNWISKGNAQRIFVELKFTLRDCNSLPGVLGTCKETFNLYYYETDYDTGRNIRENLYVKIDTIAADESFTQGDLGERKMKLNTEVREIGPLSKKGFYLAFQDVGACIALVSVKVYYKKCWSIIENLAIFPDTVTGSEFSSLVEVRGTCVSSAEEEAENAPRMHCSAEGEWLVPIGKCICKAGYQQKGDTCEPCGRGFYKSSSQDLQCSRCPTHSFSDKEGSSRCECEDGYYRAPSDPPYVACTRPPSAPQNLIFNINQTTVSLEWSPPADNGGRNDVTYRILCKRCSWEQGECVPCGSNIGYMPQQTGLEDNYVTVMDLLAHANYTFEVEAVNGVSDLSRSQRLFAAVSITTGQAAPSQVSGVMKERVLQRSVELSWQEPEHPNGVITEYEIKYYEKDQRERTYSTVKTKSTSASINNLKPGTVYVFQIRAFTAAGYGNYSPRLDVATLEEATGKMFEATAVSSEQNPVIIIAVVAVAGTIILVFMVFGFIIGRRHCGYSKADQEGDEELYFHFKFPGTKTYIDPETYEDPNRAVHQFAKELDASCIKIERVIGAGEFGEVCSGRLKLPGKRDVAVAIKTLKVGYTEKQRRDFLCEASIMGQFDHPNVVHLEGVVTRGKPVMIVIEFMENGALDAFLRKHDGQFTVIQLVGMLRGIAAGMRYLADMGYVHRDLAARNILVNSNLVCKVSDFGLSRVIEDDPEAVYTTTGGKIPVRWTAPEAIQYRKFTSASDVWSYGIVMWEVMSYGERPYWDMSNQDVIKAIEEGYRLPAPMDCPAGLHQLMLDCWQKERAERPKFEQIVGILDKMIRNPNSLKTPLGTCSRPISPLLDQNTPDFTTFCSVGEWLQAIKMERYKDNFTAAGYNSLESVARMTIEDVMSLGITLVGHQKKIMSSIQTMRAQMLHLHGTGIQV

# Molecule, Percent control, %
rows = [
    ("COc1cc2c(Nc3ccc(Br)cc3F)[n+]([Pt-2]3([Cl])[NH2+]C4CCCCC4[NH2+]3)cnc2cc1OCC1CCN(C)CC1 (stereo not shown) [3b, oxaliplatin-vandetanib]", 79),
    ("C#Cc1cccc(Nc2c3cc(OCCOC)c(OCCOC)cc3nc[n+]2[Pt@SP2-2]([NH3+])([NH3+])[Cl])c1 [2a, cisplatin-erlotinib]", 67),
    ("Cc1ccc(NC(=O)c2ccc(CN3CCN(C)CC3)cc2)cc1Nc1nccc(-c2cccnc2)[n+]1[Pt-2]1([Cl])[NH2+]C2CCCCC2[NH2+]1 (stereo not shown) [1b, oxaliplatin-imatinib]", 100),
    ("Cc1ccc(NC(=O)c2ccc(CN3CCN(C)CC3)cc2)cc1Nc1nccc(-c2cccnc2)n1 [Imatinib, reference compound]", 100),
]

* * *

biological target: BRK (Homo sapiens, UniProt Q13882); construct: purchased DiscoveRx KINOMEscan; format: binding; details: BRK; 10 μM
Sequence (Q13882 whole entry): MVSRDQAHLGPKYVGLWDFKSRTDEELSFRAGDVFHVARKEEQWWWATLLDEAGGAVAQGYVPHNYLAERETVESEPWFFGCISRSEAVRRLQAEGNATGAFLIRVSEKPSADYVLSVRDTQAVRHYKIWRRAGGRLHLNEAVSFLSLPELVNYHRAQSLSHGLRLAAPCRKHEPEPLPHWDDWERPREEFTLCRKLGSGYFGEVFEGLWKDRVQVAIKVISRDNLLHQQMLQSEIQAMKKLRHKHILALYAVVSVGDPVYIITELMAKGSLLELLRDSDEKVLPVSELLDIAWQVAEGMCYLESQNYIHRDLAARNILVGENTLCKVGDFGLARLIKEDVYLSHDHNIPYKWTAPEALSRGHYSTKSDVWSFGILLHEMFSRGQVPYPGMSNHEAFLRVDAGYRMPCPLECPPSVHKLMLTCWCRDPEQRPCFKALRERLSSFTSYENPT
Catalogue of Percent control readings, one per entry.

# Compound, Display unit, Percent control
measured = [
    ("C#Cc1cccc(Nc2c3cc(OCCOC)c(OCCOC)cc3nc[n+]2[Pt@SP2-2]([NH3+])([NH3+])[Cl])c1 [2a, cisplatin-erlotinib]", "%", 89),
    ("COc1cc2c(Nc3ccc(Br)cc3F)[n+]([Pt-2]3([Cl])[NH2+]C4CCCCC4[NH2+]3)cnc2cc1OCC1CCN(C)CC1 (stereo not shown)", "%", 27),
    ("Cc1ccc(NC(=O)c2ccc(CN3CCN(C)CC3)cc2)cc1Nc1nccc(-c2cccnc2)n1 [Imatinib, reference compound]", "%", 100),
    ("Cc1ccc(NC(=O)c2ccc(CN3CCN(C)CC3)cc2)cc1Nc1nccc(-c2cccnc2)[n+]1[Pt-2]1([Cl])[NH2+]C2CCCCC2[NH2+]1 (stereo not shown)", "%", 93),
]
